Target: SARS-CoV-2 Spike as carried on rVSV-SARS-CoV-2 pseudovirus and authentic WT virus (SARS-CoV-2, UniProt P0DTC2 14-1273)
Experiment: cell-based or functional assay
measurement kind: Neutralization (ng/mL), Pseudovirus IC50
// return numeric value only (unit: ng/mL, not printed)

[[record]]
binder = "AB-3 full-length IgG1 (antibody, V domains shown) VH: EVQLEESGTVLARPGASVKMSCKASGYTFTTYWMHWIKQRPGQGLEWIGAIYPGNGDTNYNQKFKDKAKLTAVKSTSSAYMELSSLTNEDSAVYFCTREGIPQKLRTLDVWGQGTSVTVSS VL: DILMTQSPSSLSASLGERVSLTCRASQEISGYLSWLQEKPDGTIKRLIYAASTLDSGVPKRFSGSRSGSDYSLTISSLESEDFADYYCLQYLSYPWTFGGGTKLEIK"
value_units = "ng/mL"
measured_result = 17.6


Q: Need Neutralization (ng/mL), Pseudovirus IC50 of AB-2 full-length IgG1 (antibody, V domains shown) VH: EVQLEESGTVLARPGASVKMSCKASGYTFTTYWMHWIKQRPGQGLEWIGAIYPGNGDTNYNQKFKDKAKLTAVKSTSSAYMELSSLTNEDSAVYFCTREGIPQLLRTLDYWGQGTSVTVSS VL: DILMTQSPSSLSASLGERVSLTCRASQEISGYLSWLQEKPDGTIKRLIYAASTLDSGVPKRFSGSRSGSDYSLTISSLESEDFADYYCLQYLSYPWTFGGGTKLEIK , thanks.
Result: 9.65
